Origin of the recorded values: patent US20260132197A1

- experimental.system: human CD47 on cells (SHP-77 tumor cells, human red blood cells, CCRF-CEM cells, human CD47 CHO-K1 stable cell … (human, UniProt Q08722 19-323))
- procedure.summary: cell-based or functional assay
Form field: CCRF-CEM phagocytosis, Phagocytosis (%) (one value per entry).
observed.property: CCRF-CEM phagocytosis, Phagocytosis (%)

binder	measured.result
108VH10.Mo / 108VL10.Me (antibody, V domains shown, 4D5-framework series; also called VH10.Mo VL10.Me) VH: EVQLVESGGGLVQPGGSLRLSCAASGFTFSHHWIHWVRQAPGKGLEWVAMIDASDSETRLSDSFKGRFTISADTSKNTAYLQMNSLRAEDTAVYYCSRLGRYYFDYWGQGTLVTVSS VL: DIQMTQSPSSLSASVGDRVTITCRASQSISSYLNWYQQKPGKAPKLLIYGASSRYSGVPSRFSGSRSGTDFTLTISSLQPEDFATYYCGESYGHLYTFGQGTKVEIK	56.4
108VH10.Mp / 108VL10.Me (antibody, V domains shown, 4D5-framework series; constant regions not restated for this series; also called VH10.Mp VL10.Me) VH: EVQLVESGGGLVQPGGSLRLSCAASGFTFSHHWIHWVRQAPGKGLEWVAMIDASDSETRLVDSFKGRFTISADTSKNTAYLQMNSLRAEDTAVYYCSRLGRYYFDYWGQGTLVTVSS VL: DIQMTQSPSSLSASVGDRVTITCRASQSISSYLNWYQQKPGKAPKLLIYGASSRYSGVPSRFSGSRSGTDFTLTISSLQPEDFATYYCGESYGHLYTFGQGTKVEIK	47.1
108VH5.M21 / 108VL1.M5 (antibody, human IgG4 S228P, kappa, V domains shown, Full-length IgG4 (S228P), kappa; also called VH5.M21 VL1.M5) VH: EVQLVQSGAEVKKPGASVKVSCKASGYTFTHHWMHWVRQAPGQGLEWMGMIDASDFETRYAQKFQGRVTMTRDTSTSTVYMELSSLRSEDTAVYYCARLGRYYFDYWGQGTLVTVSS VL: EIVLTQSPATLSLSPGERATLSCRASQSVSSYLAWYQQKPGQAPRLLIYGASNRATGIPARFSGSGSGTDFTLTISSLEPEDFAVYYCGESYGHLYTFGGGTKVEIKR	51.9
108VH5.M27 / 108VL1.M5 (antibody, human IgG4 S228P, kappa, V domains shown, Full-length IgG4 (S228P), kappa; also called VH5.M27 VL1.M5) VH: EVQLVQSGAEVKKPGASVKVSCKASGYTFTHHWMHWVRQAPGQGLEWMGMIDASDYETRYAQKFQGRVTMTRDTSTSTVYMELSSLRSEDTAVYYCARLGRYYFDYWGQGTLVTVSS VL: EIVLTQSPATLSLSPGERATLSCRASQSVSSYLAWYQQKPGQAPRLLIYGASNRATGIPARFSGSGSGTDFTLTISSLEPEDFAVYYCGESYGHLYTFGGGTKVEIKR	64.3
108VH5.M23 / 108VL1.M5 (antibody, human IgG4 S228P, kappa, V domains shown, Full-length IgG4 (S228P), kappa; also called VH5.M23 VL1.M5) VH: EVQLVQSGAEVKKPGASVKVSCKASGYTFTHHWMHWVRQAPGQGLEWMGMIDASDKETRYAQKFQGRVTMTRDTSTSTVYMELSSLRSEDTAVYYCARLGRYYFDYWGQGTLVTVSS VL: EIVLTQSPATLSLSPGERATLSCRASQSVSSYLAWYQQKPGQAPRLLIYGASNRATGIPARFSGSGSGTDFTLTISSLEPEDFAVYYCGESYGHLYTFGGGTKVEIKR	64
